Target: T1, 14-3-3γ (human, UniProt P61981 1-247)
T1 chain: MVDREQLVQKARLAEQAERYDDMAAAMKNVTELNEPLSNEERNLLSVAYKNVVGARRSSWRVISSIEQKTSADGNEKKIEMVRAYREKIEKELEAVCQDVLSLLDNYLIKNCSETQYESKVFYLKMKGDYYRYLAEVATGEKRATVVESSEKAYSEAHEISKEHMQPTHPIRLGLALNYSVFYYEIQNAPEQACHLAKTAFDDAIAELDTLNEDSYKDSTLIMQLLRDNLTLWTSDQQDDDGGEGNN
Test: FP
Non-standard residues stand in square brackets, D forms with d. No end group written: not given here. pS = N[C@@H](COP(=O)(O)O)C(=O)O
// reported pKd per item
// pKd is dimensionless: -log10 of concentration (M)

Worked set:
binder | parameter_measured | recorded_result
SFTDHQRLMKRRK[pS] (peptide, UniProt Q9NPC2 360-374, looked up, also: fluorescein label, position not given here, TASK-3 (KCNK9), human, C-terminal peptide with phosphorylated S373 but lacking the C-terminal valine V374; ends at pS373; source: synthetic peptide, bought: Peps4Life Sciences) [TASK-3 pS373 ΔV374 C-terminal fluorescent peptide] | pKd | 5.96
SLSTFRGLMKRRS[pS]V (also: fluorescein label, position not given here) [TASK-1 pS393 C-terminal fluorescent peptide (last 15 amino acids)] | pKd | 5.01

Below: the item to evaluate.
I would be grateful if you could share the reported pKd for SFTDHQRLMKRRK[pS]V (also: fluorescein label, position not given here) [TASK-3 pS373 C-terminal fluorescent peptide (last 15 amino acids)] .
6.82

Data origin, for the record: paper PMC4760375
